- Tested on: E18 rat cortical neuron-glia co-culture
- Method Notes: myelination (MBP fiber length per Olig2+ nucleus), % of 1 µM DAPT response (DMSO = 0) (% of DAPT); higher = more myelination, active = 50 or more
- Run Conditions: 1 µM; treatment time: 8 days (DIV5-DIV13)
Output YES for myelination not less than -10; output NO otherwise.

# Compound, Cat
measured = [
    ("Cc1ncc([N+](=O)[O-])n1CCO", "YES"),
    ("O=c1[nH]cc(F)c(=O)[nH]1", "YES"),
    ("CN1CCN(c2nc3cc(C(F)(F)F)ccc3n3cccc23)CC1", "YES"),
    ("CNCCCCOc1ccccc1Cc1ccccc1", "NO"),
    ("CN1CCN(CCCN2c3ccccc3Sc3ccc(C(F)(F)F)cc32)CC1", "NO"),
    ("C#C[C@]1(O)CC[C@H]2[C@@H]3CCC4=CC(=O)CC[C@@H]4[C@H]3CC[C@@]21C", "YES"),
    ("COC(=O)CCc1ccc(OCC(O)CNC(C)C)cc1 (stereo not drawn)", "YES"),
    ("S=c1[nH]cnc2nc[nH]c12", "NO"),
    ("C/C=C1\\[C@H]2C=C(C)C[C@]1(N)c1ccc(=O)[nH]c1C2", "YES"),
    ("CC[C@H]1OC(=O)[C@H](C)C(=O)[C@H](C)[C@@H](O[C@@H]2O[C@H](C)C[C@H](N(C)C)[C@H]2O)[C@](C)(OC)C[C@@H](C)C(=O)[C@H](C)[C@H]2N(CCCCn3cnc(-c4cccnc4)c3)C(=O)O[C@]12C", "YES"),
    ("O=C1c2cccc3c2[C@H](CCC3)CN1[C@@H]1CN2CCC1CC2", "NO"),
    ("CCS(=O)(=O)CCn1c([N+](=O)[O-])cnc1C", "NO"),
    ("C=C[C@H]1CN2CC[C@H]1C[C@H]2[C@H](O)c1ccnc2ccc(OC)cc12", "YES"),
    ("CC(C)/N=c1\\cc2n(-c3ccc(Cl)cc3)c3ccccc3nc-2cc1Nc1ccc(Cl)cc1", "YES"),
    ("CN(C)CCN(Cc1ccccc1)c1ccccn1", "NO"),
    ("CC1(C)O[C@@H]2[C@@H](CO[C@@]3(COS(N)(=O)=O)OC(C)(C)O[C@@H]23)O1 [Topiramate]", "NO"),
    ("CCCCN1CCCCC1C(=O)Nc1c(C)cccc1C (stereo not drawn)", "NO"),
    ("N[C@@H](Cc1cc(I)c(Oc2ccc(O)c(I)c2)c(I)c1)C(=O)O", "NO"),
]

Cited source for all entries: the supplement of paper PMC4840960
